Assay: Cytotoxicity against African green monkey Vero cells infected with eGPF-labeled DENV2 16681 assessed as reduction in cell viability measured after 3 days by ATPlite assay
Assay type: toxicity, cell-based
Conditions: chlorocebus sabaeus, vero, 72 h
compounds and their reported CC50
Dear colleague, please return just the value in µM, with no unit written.

Reference set (4 entries):
Compound: COc1cc(NC(C(=O)c2c[nH]c3c(C)cc(OC(F)(F)F)cc23)c2ccc(Cl)cc2OC)cc(S(C)(=O)=O)c1 (stereo in doubt; 11A)
Result Value: 2.6
//
Compound: COc1cc(NC(C(=O)c2c[nH]c3cc(F)ccc23)c2ccc(Cl)cc2OC)cc(S(C)(=O)=O)c1 (single isomer, unassigned; enantiomer 2)
Result Value: 6.5
//
Compound: COc1cc(NC(C(=O)c2c[nH]c3ccc(OC(F)(F)F)cc23)c2ccc(Cl)cc2OC)cc(S(C)(=O)=O)c1 (single isomer, unassigned; enantiomer 2)
Result Value: 6.2
//
Compound: COc1cc(NC(C(=O)c2c[nH]c3cc(F)c(C)cc23)c2ccc(Cl)cc2OC)cc(S(C)(=O)=O)c1 (single isomer, unassigned; enantiomer 2)
Result Value: 3.2

Request: Fill in: CC50 of COc1cc(NC(C(=O)c2c[nH]c3c(C)cc(OC(F)(F)F)cc23)c2ccc(Cl)cc2OC)cc(S(C)(=O)=O)c1 (single isomer, unassigned; enantiomer 2) is ___
Result: 9.2

Request: Same again, this time with COc1cc(NC(C(=O)c2c[nH]c3cc(F)ccc23)c2ccc(Cl)cc2OC)cc(S(C)(=O)=O)c1 (single isomer, unassigned; enantiomer 1)
Result: 4.3

Request: Same again, this time with COc1cc(NC(C(=O)c2c[nH]c3c(C)c(F)ccc23)c2ccc(Cl)cc2OC)cc(S(C)(=O)=O)c1 (single isomer, unassigned; enantiomer 2)
Result: 7.4

----------
compounds and their reported CC50 at 72 h
Test: Cytotoxicity against African green monkey Vero cells infected with eGPF-labeled DENV2 16681 assessed as reduction in cell viability measured after 3 days by ATPlite assay
Assay type: toxicity, cell-based
Conditions: chlorocebus sabaeus, Vero cells infected with eGFP-labeled DENV2 16681
Dear colleague, please return just the value in µM, with no unit written.

Compound: COc1cc(NC(C(=O)c2c[nH]c3c(C)c(F)ccc23)c2ccc(Cl)cc2OC)cc(S(C)(=O)=O)c1 (single isomer, unassigned; enantiomer 1)
Unit Descriptor: µM
CC50 at 72 h: 4.8

Then this compound:
Request: Fill in: CC50 at 72 h of COc1cc(NC(C(=O)c2c[nH]c3cc(F)ccc23)c2ccc(Cl)cc2OC)cc(S(C)(=O)=O)c1 (racemic) is ___
Result: 5.5

----------
Assay: Cytotoxicity against African green monkey Vero cells infected with eGPF-labeled DENV2 16681 assessed as reduction in cell viability measured after 3 days by ATPlite assay
Assay type: toxicity, cell-based
Conditions: chlorocebus sabaeus, vero, 72 h
Observed Property: CC50 (µM)
Dear colleague, please return just the value in µM, with no unit written.

Reference set (3 entries):
Compound: COc1cc(NC(C(=O)c2c[nH]c3cc(F)c(C)cc23)c2ccc(Cl)cc2OC)cc(S(C)(=O)=O)c1 (single isomer, unassigned; enantiomer 1)
Observed Property: CC50
Result Value: 6.8
--
Compound: COc1cc(NC(C(=O)c2c[nH]c3cc(OC)c(C)cc23)c2ccc(Cl)cc2OC)cc(S(C)(=O)=O)c1 (single isomer, unassigned)
Observed Property: CC50
Result Value: 4.2
--
Compound: COc1cc(NC(C(=O)c2c[nH]c3ccc(OC(F)(F)F)cc23)c2ccc(Cl)cc2OC)cc(S(C)(=O)=O)c1 (single isomer, unassigned; enantiomer 1)
Observed Property: CC50
Result Value: 2.9

Then this compound:
Request: Fill in: CC50 of COc1cc(NC(C(=O)c2c[nH]c3cc(OC)c(C)cc23)c2ccc(Cl)cc2OC)cc(S(C)(=O)=O)c1 (single isomer, unassigned; enantiomer 2) is ___
Result: 12
